Can you tell me Residual activity (%) RNase H for the items I'm about to list?
Target: RNase H activity of HIV reverse transcriptase (Human immunodeficiency virus type 1 group M subtype B, UniProt P03366)
Construct: 2.5 nM of the p51/p66 RT heterodimer in the assay; made in house
Assay: Fluorescence (FRET)-based RNase H assay of HIV reverse transcriptase
Type: biochemical, HIV-1
Details: 10 μM inhibitor concentration; activity in presence / in absence of analog x 100
# include the unit after the value

Some solved entries appear below for comparison.
# compound, Residual activity (%) RNase H
rows = [
    ("CCCCCCc1c2c(nc3ccc(F)cc13)-c1cc(C(=O)CC)c(C)c(=O)n1C2", "103%"),
    ("COc1ccc2nc3c(c(-c4ccccc4)c2c1)Cn1c-3cc(C(=O)CCC2CCCCC2)c(C)c1=O", "97%"),
]

I'm hoping you can list Residual activity (%) RNase H for every compound here, please.
1. CCCCCCc1c2c(nc3ccccc13)-c1cc(C(=O)CC)c(C)c(=O)n1C2
2. CCCCCCc1c2c(nc3ccc(OC)cc13)-c1cc(C(=O)CCC3CCCCC3)c(C)c(=O)n1C2
3. CCCCCCc1c2c(nc3ccc(C)cc13)-c1cc(C(O)CC)c(C)c(=O)n1C2 (centres unmarked)
4. Cc1ccc2nc3c(c([Si](C)(C)C)c2c1)Cn1c-3cc(C(=O)CCC2CCCCC2)c(C)c1=O
5. Cc1ccc2nc3c(c(-c4ccccc4)c2c1)Cn1c-3cc(C(=O)C(C)(C)C)c(C)c1=O

1: 77%; 2: 90%; 3: 65%; 4: 99%; 5: 96%

Count: 7. Required value per item: Residual activity (%) RNase H.
1. CCC(O)c1cc2n(c(=O)c1C)Cc1c-2nc2ccccc2c1[Si](C)(C)C(C)(C)C (centres unmarked)
2. COc1ccc2nc3c(c(-c4ccccc4)c2c1)Cn1c-3cc(C(O)CCC2CCCCC2)c(C)c1=O (centres unmarked)
3. Cc1c(C(O)CCC2CCCCC2)cc2n(c1=O)Cc1c-2nc2ccccc2c1-c1ccccc1 (centres unmarked)
4. Cc1c(C(O)CCC2CCCCC2)cc2n(c1=O)Cc1c-2nc2ccc(F)cc2c1[Si](C)(C)C(C)(C)C (centres unmarked)
5. CCCCCCc1c2c(nc3ccc(F)cc13)-c1cc(C(=O)C(C)(C)C)c(C)c(=O)n1C2
6. Cc1ccc2nc3c(c([Si](C)(C)C(C)(C)C)c2c1)Cn1c-3cc(C(O)C(C)(C)C)c(C)c1=O (centres unmarked)
7. Cc1c(C(O)Cc2ccccc2)cc2n(c1=O)Cc1c-2nc2ccccc2c1[Si](C)(C)C (centres unmarked)

["104%", "67%", "104%", "90%", "81%", "94%", "93%"]

---

Biological target: RNA-dependent DNA polymerase activity of HIV reverse transcriptase (Human immunodeficiency virus type 1 group M subtype B)
Construct: made in house
Assay: RNA-dependent DNA polymerase activity assay of HIV reverse transcriptase
Assay type: biochemical, HIV-1
Settings: 10 μM inhibitor concentration; activity in presence / in absence of analog x 100
Protocol: In separate representative assays, mappicine analogs were tested for their ability to inhibit the RNA-dependent DNA polymerase activity of HIV reverse transcriptase and for their ability to inhibit the RNase H activity of HIV reverse transcriptase. […]
Returns one of met or not met; met when Residual activity (%) Polymerase is >= 70%.

# compound, assignedCategory
measured = [
    ("CCCCCCc1c2c(nc3ccc(OC)cc13)-c1cc(C(=O)CCC3CCCCC3)c(C)c(=O)n1C2", "not met"),
    ("Cc1ccc2nc3c(c([Si](C)(C)C)c2c1)Cn1c-3cc(C(O)Cc2ccccc2)c(C)c1=O (stereo not drawn)", "met"),
    ("Cc1c(C(O)CCC2CCCCC2)cc2n(c1=O)Cc1c-2nc2ccc(F)cc2c1[Si](C)(C)C(C)(C)C (stereo not drawn)", "not met"),
    ("CCC(O)c1cc2n(c(=O)c1C)Cc1c-2nc2ccc(F)cc2c1[Si](C)(C)C (stereo not drawn)", "met"),
    ("Cc1ccc2nc3c(c(-c4ccccc4)c2c1)Cn1c-3cc(C(=O)C(C)(C)C)c(C)c1=O", "not met"),
]

Is the recorded value of Residual activity (%) Polymerase equal to or greater than 70% for this compound? CCCCCCc1c2c(nc3ccc(OC)cc13)-c1cc(C(O)CC)c(C)c(=O)n1C2 (stereo not drawn)
met

Assess whether reported Residual activity (%) Polymerase for "COc1ccc2nc3c(c([Si](C)(C)C)c2c1)Cn1c-3cc(C(=O)CCC2CCCCC2)c(C)c1=O" sits at 70% or higher.
not met

Please indicate if the recorded Residual activity (%) Polymerase for Cc1ccc2nc3c(c([Si](C)(C)C)c2c1)Cn1c-3cc(C(O)CCC2CCCCC2)c(C)c1=O (stereo not drawn) meets or exceeds 70%.
not met

Has COc1ccc2nc3c(c([Si](C)(C)C)c2c1)Cn1c-3cc(C(O)Cc2ccccc2)c(C)c1=O (stereo not drawn) a recorded Residual activity (%) Polymerase greater than or equal to 70%?
not met

# bool: Residual activity (%) Polymerase of "CCC(=O)c1cc2n(c(=O)c1C)Cc1c-2nc2ccc(F)cc2c1[Si](C)(C)C(C)(C)C" >= 70%
not met

Textbook exercise: given the entry "CCCCCCc1c2c(nc3ccc(F)cc13)-c1cc(C(=O)CCC3CCCCC3)c(C)c(=O)n1C2" , state whether its Residual activity (%) Polymerase is greater than or equal to 70%.
met

Could you tell me if the measured Residual activity (%) Polymerase of "COc1ccc2nc3c(c(-c4ccccc4)c2c1)Cn1c-3cc(C(=O)Cc2ccccc2)c(C)c1=O" reaches 70% or more?
met

Kindly determine if Residual activity (%) Polymerase recorded for CCC(O)c1cc2n(c(=O)c1C)Cc1c-2nc2ccc(OC)cc2c1[Si](C)(C)C (stereo not drawn) is above or exactly 70%.
met

Does "CCCCCCc1c2c(nc3ccc(C)cc13)-c1cc(C(=O)C(C)(C)C)c(C)c(=O)n1C2" have a reported Residual activity (%) Polymerase of at least 70%?
not met

Residual activity (%) Polymerase >= 70% for "COc1ccc2nc3c(c(-c4ccccc4)c2c1)Cn1c-3cc(C(=O)CCC2CCCCC2)c(C)c1=O" ?
met

Could you tell me if the measured Residual activity (%) Polymerase of CCCCCCc1c2c(nc3ccc(F)cc13)-c1cc(C(O)CCC3CCCCC3)c(C)c(=O)n1C2 (stereo not drawn) reaches 70% or more?
met

Is the recorded value of Residual activity (%) Polymerase equal to or greater than 70% for this compound? "CCCCCCc1c2c(nc3ccc(OC)cc13)-c1cc(C(=O)CC)c(C)c(=O)n1C2"
not met

# check: Residual activity (%) Polymerase of "CCCCCCc1c2c(nc3ccc(OC)cc13)-c1cc(C(=O)C(C)(C)C)c(C)c(=O)n1C2" is greater than or equal to 70%
met

Assess whether reported Residual activity (%) Polymerase for CCCCCCc1c2c(nc3ccc(C)cc13)-c1cc(C(O)Cc3ccccc3)c(C)c(=O)n1C2 (stereo not drawn) sits at 70% or higher.
met

Hello, I need to know if "CCC(=O)c1cc2n(c(=O)c1C)Cc1c-2nc2ccccc2c1[Si](C)(C)C(C)(C)C" has measured Residual activity (%) Polymerase not below 70%. Thanks!
not met

Please check the record CCCCCCc1c2c(nc3ccc(C)cc13)-c1cc(C(O)C(C)(C)C)c(C)c(=O)n1C2 (stereo not drawn) and state if its Residual activity (%) Polymerase is at or above 70%.
met

Check this compound for Residual activity (%) Polymerase at or above 70%: "CCCCCCc1c2c(nc3ccc(C)cc13)-c1cc(C(=O)CCC3CCCCC3)c(C)c(=O)n1C2"
met

Check the entry "CCCCCCc1c2c(nc3ccccc13)-c1cc(C(=O)Cc3ccccc3)c(C)c(=O)n1C2" : does Residual activity (%) Polymerase equal or exceed 70%?
not met

All values here come from patent US20040077674A1.
